experiment: Hydrolytic stability; format: physicochemical; details: citrate buffer, pH 2
measured quantity: recovery at 24 h (%)
The response must be a number in % with no trailing unit.

Query: Reported recovery at 24 h, molecule N=S(=O)(c1ccccc1)N1CCCCC1 (stereo not shown) [2 a, 1 ‐(S‐Phenylsulfonimidoyl)piperidine] : ____
Result: 100

---

test: Bidirectional Caco2 permeability assay; assay type: in vitro ADME; conditions: human, Caco-2
measured quantity: Papp A→B (×10⁻⁶ cm/s)
The response must be a number in ×10⁻⁶ cm/s with no trailing unit.

Query: Reported Papp A→B, molecule N=S(=O)(c1ccccc1)N1CCCCC1 (stereo not shown) [2 a, 1 ‐(S‐Phenylsulfonimidoyl)piperidine] : ____
Result: 37.8

---

experiment: Bidirectional Caco2 permeability assay; format: in vitro ADME; conditions: human, Caco-2
measured quantity: efflux ratio
Hey, just send me the number, nothing else.

Query: Reported efflux ratio, molecule N=S(=O)(c1ccccc1)N1CCCCC1 (stereo not shown) [2 a, 1 ‐(S‐Phenylsulfonimidoyl)piperidine] : ____
Result: 0.59

---

assay: Hydrolytic stability; type: physicochemical; details: phosphate-buffered saline, pH 7.4
measured quantity: recovery at 24 h (%)
The response must be a number in % with no trailing unit.

Query: Reported recovery at 24 h, compound N=S(=O)(c1ccccc1)N1CCCCC1 (stereo not shown) [2 a, 1 ‐(S‐Phenylsulfonimidoyl)piperidine] : ____
Result: 100

---

assay: Hydrolytic stability; type: physicochemical; conditions: citrate buffer, pH 4.5
measured quantity: recovery at 24 h

Query: Reported recovery at 24 h, molecule N=S(=O)(c1ccccc1)N1CCCCC1 (stereo not shown) [2 a, 1 ‐(S‐Phenylsulfonimidoyl)piperidine] : ____
Result: 100%
